- SYSTEM NAME: full length recombinant Pim-1 (Homo sapiens (Human), UniProt P11309)
- Sequence (P11309 whole entry): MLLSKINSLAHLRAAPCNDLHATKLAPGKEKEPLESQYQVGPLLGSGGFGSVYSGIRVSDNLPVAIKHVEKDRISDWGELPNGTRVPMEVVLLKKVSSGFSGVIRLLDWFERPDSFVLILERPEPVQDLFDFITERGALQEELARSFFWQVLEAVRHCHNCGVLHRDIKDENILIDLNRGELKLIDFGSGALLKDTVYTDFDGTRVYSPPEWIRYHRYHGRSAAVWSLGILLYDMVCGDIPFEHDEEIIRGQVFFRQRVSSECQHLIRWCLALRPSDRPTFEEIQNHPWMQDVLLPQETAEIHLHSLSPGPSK
- TEST NAME: Pim enzyme assay (HTRF, phosphorylation of biotinylated-BAD (S112) peptide), Pim-1
- Type: biochemical
- STATED CONDITIONS: Pim-1 enzyme assay; read-out: Pim_1_IC50
Friendly reminder: IC50 below 60 nM is True, at or above is False.

Q: For this compound, is IC50 lower than 60 nM? Cc1ccn(-c2cnc(-c3c[nH]c4ccc(-c5nnc(N)s5)cc34)cn2)n1 [Example 197]
Result: False

Q: For this compound, is IC50 lower than 60 nM? Cc1nnc2n1CCN(c1cccc(-c3c[nH]c4ccc(-c5nnc(N)s5)cc34)n1)C2 [Example 25, 2,2,2-trifluoroacetate]
Result: True

Q: For this compound, is IC50 lower than 60 nM? Nc1nnc(-c2ccc3[nH]cc(-c4cncc(N5CCC(F)(F)C5)n4)c3c2)o1 [Example 88]
Result: True

Q: For this compound, is IC50 lower than 60 nM? COc1ccc(-c2c[nH]c3ccc(-c4nnc(N)s4)cc23)nc1OC [Example 168]
Result: True

Q: For this compound, is IC50 lower than 60 nM? CCCCOc1cnc(-c2c[nH]c3ccc(-c4nnc(N)s4)cc23)cn1 [Example 193]
Result: False

Q: For this compound, is IC50 lower than 60 nM? Nc1nnc(-c2ccc3[nH]cc(-c4cncc(NCC5CC5)n4)c3c2)s1 [Example 207]
Result: True

Q: For this compound, is IC50 lower than 60 nM? CNc1nnc(-c2ccc3[nH]cc(-c4nccc(N5CCC[C@H](N)C5)n4)c3c2)s1 [Example 128]
Result: True

Q: For this compound, is IC50 lower than 60 nM? CSc1nnc(-c2ccc3[nH]cc(-c4cccc(N5CCOCC5)n4)c3c2)s1 [Example 243]
Result: False

Q: For this compound, is IC50 lower than 60 nM? CC1(C)CNc2ncc(-c3c[nH]c4ccc(-c5nnc(N)s5)cc34)nc21 [Example 201]
Result: True

Q: For this compound, is IC50 lower than 60 nM? CC1CCCCN1c1ccnc(-c2c[nH]c3ccc(-c4nnc(N)o4)cc23)n1 (centres unmarked) [Example 3]
Result: True

Q: For this compound, is IC50 lower than 60 nM? CNc1nnc(-c2ccc3[nH]cc(-c4cccc(-n5cnc(C)c5)n4)c3c2)s1 [Example 228]
Result: True

Q: For this compound, is IC50 lower than 60 nM? CN(C)c1cncc(-c2c[nH]c3ccc(-c4nnc(N)s4)cc23)n1 [Example 158]
Result: True

Q: For this compound, is IC50 lower than 60 nM? c1cc2[nH]cc(-c3cncc(C4CC4)n3)c2cc1-c1nnc(NC2COC2)o1 [Example 251]
Result: True

Q: For this compound, is IC50 lower than 60 nM? CN1CCCC(Oc2ccnc(-c3c[nH]c4ccc(-c5nnc(N)o5)cc34)n2)C1 (centres unmarked) [Example 112]
Result: True

Q: For this compound, is IC50 lower than 60 nM? Fc1ccccc1-c1c[nH]c2ccc(-c3nnc(NCC[C@H]4CCCCN4)s3)cc12 (stereo in doubt) [Example 141]
Result: False

Q: For this compound, is IC50 lower than 60 nM? CNc1nnc(-c2ccc3[nH]cc(-c4cccc(OC5CCC5)n4)c3c2)s1 [Example 232]
Result: True

Q: For this compound, is IC50 lower than 60 nM? CC(=O)Nc1ccc(CNc2nnc(-c3ccc4[nH]cc(-c5ccc(F)cc5F)c4c3)s2)cc1 [Example 148]
Result: False
